Quick record: IC50, JAK2 (Homo sapiens, UniProt O60674).
quantity_measured: IC50

[[record]]
smiles_structure = "CCS(=O)(=O)N1CCC2(CCC(N(C)c3ncnc4[nH]ccc34)CC2)CC1"
tested_target = "JAK2 (Homo sapiens, UniProt O60674)"
result = "0.1 to 1 µM"

[[record]]
smiles_structure = "CN(c1ncnc2[nH]ccc12)C1CC2(C1)CN(C(=O)c1cnccn1)C2"
tested_target = "JAK2 (Homo sapiens, UniProt O60674)"
result = "1 to 10 µM"

[[record]]
smiles_structure = "CN(c1ncnc2[nH]ccc12)C1CC2(C1)CN(C(=O)c1cccc(OC(F)(F)F)c1)C2"
tested_target = "JAK2 (Homo sapiens, UniProt O60674)"
result = "1 to 10 µM"

[[record]]
smiles_structure = "C#Cc1ccc(C(=O)N2CC3(CC(N(C)c4ncnc5[nH]ccc45)C3)C2)cc1F"
tested_target = "JAK2 (Homo sapiens, UniProt O60674)"
result = "0.1 to 1 µM"

[[record]]
smiles_structure = "CN(c1ncnc2[nH]ccc12)C1CC2(C1)CN(C(=O)c1cnn(C3CC3)c1)C2"
tested_target = "JAK2 (Homo sapiens, UniProt O60674)"
result = "1 to 10 µM"

[[record]]
smiles_structure = "CN(c1ncnc2[nH]ccc12)C1CCC2(CC1)CCN(C(=O)CCS(C)(=O)=O)CC2"
tested_target = "JAK2 (Homo sapiens, UniProt O60674)"
result = "0.1 to 1 µM"

[[record]]
smiles_structure = "Cc1cc(C#N)ccc1C(=O)N1CC2(CC(N(C)c3ncnc4[nH]ccc34)C2)C1"
tested_target = "JAK2 (Homo sapiens, UniProt O60674)"
result = "1 to 10 µM"

[[record]]
smiles_structure = "CN(c1ncnc2[nH]ccc12)C1CC2(C1)CN(C(=O)c1ccc(C#N)nc1)C2"
tested_target = "JAK2 (Homo sapiens, UniProt O60674)"
result = "1 to 10 µM"


---

# tested_target: JAK1 (Homo sapiens, UniProt P23458)
# Sequence (P23458 whole entry, species assumed): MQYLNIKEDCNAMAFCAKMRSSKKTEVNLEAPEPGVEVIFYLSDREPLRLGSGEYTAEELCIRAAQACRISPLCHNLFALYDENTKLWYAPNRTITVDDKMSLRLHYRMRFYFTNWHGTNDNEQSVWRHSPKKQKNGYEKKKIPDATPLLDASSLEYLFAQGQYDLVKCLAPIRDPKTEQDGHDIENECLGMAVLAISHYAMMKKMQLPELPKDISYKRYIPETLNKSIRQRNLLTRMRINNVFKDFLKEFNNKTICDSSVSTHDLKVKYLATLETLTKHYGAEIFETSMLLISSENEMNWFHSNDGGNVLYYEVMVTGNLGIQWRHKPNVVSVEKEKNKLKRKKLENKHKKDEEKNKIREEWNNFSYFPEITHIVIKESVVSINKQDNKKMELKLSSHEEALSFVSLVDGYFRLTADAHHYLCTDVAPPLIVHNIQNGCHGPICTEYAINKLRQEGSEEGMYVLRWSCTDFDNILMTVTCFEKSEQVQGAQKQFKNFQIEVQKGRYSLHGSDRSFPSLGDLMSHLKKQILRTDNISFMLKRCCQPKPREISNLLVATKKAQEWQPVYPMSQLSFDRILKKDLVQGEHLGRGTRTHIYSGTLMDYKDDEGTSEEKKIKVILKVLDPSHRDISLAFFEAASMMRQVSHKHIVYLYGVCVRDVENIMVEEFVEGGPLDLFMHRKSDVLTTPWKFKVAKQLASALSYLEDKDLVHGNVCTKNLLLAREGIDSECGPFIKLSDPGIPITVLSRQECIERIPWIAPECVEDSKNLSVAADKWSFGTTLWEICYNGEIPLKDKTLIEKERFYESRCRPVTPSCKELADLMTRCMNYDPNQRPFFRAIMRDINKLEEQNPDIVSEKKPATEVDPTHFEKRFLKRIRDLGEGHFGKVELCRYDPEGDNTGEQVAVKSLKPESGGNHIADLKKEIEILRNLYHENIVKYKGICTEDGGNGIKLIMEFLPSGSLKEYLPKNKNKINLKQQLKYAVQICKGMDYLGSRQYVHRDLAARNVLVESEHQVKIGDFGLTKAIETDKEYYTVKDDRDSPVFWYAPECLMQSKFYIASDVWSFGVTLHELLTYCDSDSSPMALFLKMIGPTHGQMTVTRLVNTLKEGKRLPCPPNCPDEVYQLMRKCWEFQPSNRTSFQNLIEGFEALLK
pIC50: −log10 of the molar value. Structures can show the parent of a compound that is named as a salt.
quantity_measured: pIC50

[[record]]
molecule = "CN(c1ncnc2[nH]ccc12)C1CC2(C1)CN(C(=O)c1cccnc1)C2"
quantity_measured = "pIC50"
result = "7.00 to 8.00"

[[record]]
molecule = "CN(c1ncnc2[nH]ccc12)C1CC2(C1)CN(C(=O)CO)C2"
quantity_measured = "pIC50"
result = "6.00 to 7.00"

[[record]]
molecule = "C#Cc1ccc(C(=O)N2CC3(CC(N(C)c4ncnc5[nH]ccc45)C3)C2)c(F)c1"
quantity_measured = "pIC50"
result = "≥ 8.00"

[[record]]
molecule = "CNC(=O)N1CCC2(CCC(N(C)c3ncnc4[nH]ccc34)CC2)CC1"
quantity_measured = "pIC50"
result = "7.00 to 8.00"

[[record]]
molecule = "CNCC(=O)N1CCC2(CCC(N(C)c3ncnc4[nH]ccc34)CC2)CC1 [Compound 97, HCl salt]"
quantity_measured = "pIC50"
result = "6.00 to 7.00"

[[record]]
molecule = "[2H]C([2H])([2H])N(c1ncnc2[nH]ccc12)C1CC2(C1)CN(C(=O)c1ccc(C#C)c(F)c1)C2"
quantity_measured = "pIC50"
result = "≥ 8.00"

[[record]]
molecule = "CN(c1ncnc2[nH]ccc12)C1CCC2(CC1)CCN(CC(F)(F)F)CC2"
quantity_measured = "pIC50"
result = "6.00 to 7.00"

[[record]]
molecule = "CN(c1ncnc2[nH]ccc12)C1CC2(C1)CN(C(=O)c1csc3ccccc13)C2"
quantity_measured = "pIC50"
result = "7.00 to 8.00"

[[record]]
molecule = "CN(c1ncnc2[nH]ccc12)C1CCC2(CC1)CCN(C(=O)OC(C)(C)C)CC2"
quantity_measured = "pIC50"
result = "5.00 to 6.00"

[[record]]
molecule = "CN(c1ncnc2[nH]ccc12)C1CCC2(CC1)CCN(C(=O)COc1ccc(C#N)cc1)CC2"
quantity_measured = "pIC50"
result = "≥ 8.00"

[[record]]
molecule = "CN(c1ncnc2[nH]ccc12)C1CC2(C1)CN(C(=O)c1cc(F)c(C#N)cc1F)C2"
quantity_measured = "pIC50"
result = "7.00 to 8.00"

[[record]]
molecule = "CN(c1ncnc2[nH]ccc12)C1CC2(C1)CN(C(=O)c1ccc(C#N)cc1F)C2"
quantity_measured = "pIC50"
result = "7.00 to 8.00"

[[record]]
molecule = "CN(c1ncnc2[nH]ccc12)C1CC2(C1)CN(C(=O)c1ccc(C#N)c(Cl)c1)C2"
quantity_measured = "pIC50"
result = "7.00 to 8.00"

[[record]]
molecule = "CN(c1ncnc2[nH]ccc12)C1CCC2(CC1)CCN(C(=O)Nc1cccc(C#N)n1)CC2"
quantity_measured = "pIC50"
result = "≥ 8.00"

[[record]]
molecule = "CN(c1ncnc2[nH]ccc12)C1CCC2(CC1)CCN(C(=O)CCC#N)CC2"
quantity_measured = "pIC50"
result = "6.00 to 7.00"

[[record]]
molecule = "CN(c1ncnc2[nH]ccc12)C1CCC2(CC1)CCN(C(=O)Nc1ncc(C#N)s1)CC2"
quantity_measured = "pIC50"
result = "≥ 8.00"

[[record]]
molecule = "CN(c1ncnc2[nH]ccc12)C1CC2(C1)CN(C(=O)c1cnccn1)C2"
quantity_measured = "pIC50"
result = "6.00 to 7.00"

[[record]]
molecule = "CN(c1ncnc2[nH]ccc12)C1CC2(C1)CN(C(=O)c1ccc(F)c(C#N)c1)C2"
quantity_measured = "pIC50"
result = "≥ 8.00"

[[record]]
molecule = "CN(c1ncnc2[nH]ccc12)C1CC2(C1)CN(C(=O)c1ccc(C#N)c(Cl)c1Cl)C2"
quantity_measured = "pIC50"
result = "≥ 8.00"

[[record]]
molecule = "CN(c1ncnc2[nH]ccc12)C1CCC2(CC1)CCN(C(=O)c1cc3ccccc3s1)CC2"
quantity_measured = "pIC50"
result = "6.00 to 7.00"

[[record]]
molecule = "CN(c1ncnc2[nH]ccc12)C1CCC2(CC1)CCN(C(=O)c1ccc(S(N)(=O)=O)cc1)CC2"
quantity_measured = "pIC50"
result = "7.00 to 8.00"

[[record]]
molecule = "CN(c1ncnc2[nH]ccc12)C1CC2(C1)CN(C(=O)c1ccc(F)c(C#N)c1F)C2"
quantity_measured = "pIC50"
result = "≥ 8.00"

[[record]]
molecule = "CN(c1ncnc2[nH]ccc12)C1CCC2(CC1)CCN(C(=O)OCC(F)(F)F)CC2"
quantity_measured = "pIC50"
result = "6.00 to 7.00"

[[record]]
molecule = "CN(c1ncnc2[nH]ccc12)C1CC2(C1)CN(C(=O)c1cc3ccccc3[nH]1)C2"
quantity_measured = "pIC50"
result = "7.00 to 8.00"

[[record]]
molecule = "CN(c1ncnc2[nH]ccc12)C1CCC2(CC1)CCN(C(=O)CC#N)CC2"
quantity_measured = "pIC50"
result = "5.00 to 6.00"

[[record]]
molecule = "CN(c1ncnc2[nH]ccc12)C1CCC2(CC1)CCN(C(=O)c1cccnc1)CC2"
quantity_measured = "pIC50"
result = "6.00 to 7.00"

[[record]]
molecule = "CN(c1ncnc2[nH]ccc12)C1CC2(C1)CN(C(=O)c1ccc(C(F)(F)F)cc1)C2"
quantity_measured = "pIC50"
result = "6.00 to 7.00"

[[record]]
molecule = "C#Cc1ccc(C(=O)N2CC3(CC(N(C)c4ncnc5[nH]ccc45)C3)C2)cc1Cl"
quantity_measured = "pIC50"
result = "≥ 8.00"

[[record]]
molecule = "CN(c1ncnc2[nH]ccc12)C1CCC2(CC1)CCN(S(=O)(=O)CC(F)(F)F)CC2"
quantity_measured = "pIC50"
result = "7.00 to 8.00"

[[record]]
molecule = "CN(c1ncnc2[nH]ccc12)C1CC2(C1)CN(C(=O)c1cccc(OC(F)(F)F)c1)C2"
quantity_measured = "pIC50"
result = "6.00 to 7.00"

[[record]]
molecule = "CN(c1ncnc2[nH]ccc12)C1CC2(C1)CN(C(=O)c1ccc(F)cc1)C2"
quantity_measured = "pIC50"
result = "7.00 to 8.00"

[[record]]
molecule = "CN(c1ncnc2[nH]ccc12)C1CCC2(CC1)CCN(C(=O)Nc1nccs1)CC2"
quantity_measured = "pIC50"
result = "≥ 8.00"

